Target or test system: Retinoic acid receptor alpha (Homo sapiens) (UniProt P10276)
Sequence (P10276 whole entry, looked up): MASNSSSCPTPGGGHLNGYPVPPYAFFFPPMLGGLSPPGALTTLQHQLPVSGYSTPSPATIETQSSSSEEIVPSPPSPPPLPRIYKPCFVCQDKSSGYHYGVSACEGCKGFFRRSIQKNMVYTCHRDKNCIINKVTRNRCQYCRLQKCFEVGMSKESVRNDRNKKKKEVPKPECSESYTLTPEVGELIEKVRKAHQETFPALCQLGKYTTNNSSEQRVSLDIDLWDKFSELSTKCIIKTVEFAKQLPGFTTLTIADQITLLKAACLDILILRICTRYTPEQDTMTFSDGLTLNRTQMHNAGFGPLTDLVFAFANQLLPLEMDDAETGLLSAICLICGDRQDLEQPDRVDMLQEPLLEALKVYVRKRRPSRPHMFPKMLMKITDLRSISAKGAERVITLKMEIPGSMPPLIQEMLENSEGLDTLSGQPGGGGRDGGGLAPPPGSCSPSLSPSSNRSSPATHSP
Assay text: ATG_DR5_RAR_CIS: Attagene CIS-FACTORIAL HepG2 Assay for human Retinoic Acid Receptor Alpha (RARE), DR5 submotif (AID 2282934)
Condition details: HepG2 Attagene cis-factorial RARE DR5 reporter, mRNA; actives raise or lower the signal
Procedure: ATG_CIS is a cell-based, multiplexed-readout assay that uses HepG2, a human liver cell line, with measurements taken at 24 hours after chemical dosing in a 24-well plate.ATG_DR5_RAR_CIS is one of 52 assay component(s) measured or calculated from the ATG_CIS assay. […] This assay endpoint, ATG_DR5_CIS, was analyzed with bidirectional fitting relative to DMSO as the negative control and baseline of activity. […]
Activity calls are given as the source filed them. The calls were made as follows: active = hit-call score of the fitted dose curve at least 0.9, where 1 is the maximum; inactive = score below 0.9.
Classes used: 1.0 (active), 0.0 (inactive)

In [3]: df
Out[3]:
                                    compound  class_name
 0  CC(=O)OC(C)(C)C1CC=C(C)CC1 (stereo not given)         0.0
 1      O=c1cc(-c2ccc(O)cc2)oc2cc(O)cc(O)c12         0.0
 2       C=C(C)CCCC(C)CCO (stereo not given)         0.0
 3  OC[C@H]1O[C@@H](O[C@H]2[C@H](O)[C@@H](O)[C@H](O)O[C@@H]2CO)[C@H](O)[C@@H](O)[C@H]1O         0.0
 4    CCC(C)COC(=O)CC(C)C (stereo not given)         0.0
 5                               CCCCOCCOCCO         0.0
 6                       CCO[Si](CC)(OCC)OCC         0.0
 7                     O=S(=O)(O)CCCN1CCOCC1         0.0
 8  C=C(C)C(=O)OCCC(C)OC(=O)C(=C)C (stereo not given)         0.0
 9           CCn1cc(C(=O)O)c(=O)c2ccc(C)nc21         0.0
10   OC[C@@H](O)[C@H](O)[C@@H](O)[C@@H](O)CO         0.0
11                            CC(C)Cc1ccccc1         0.0
12                           Nc1ccc(O)c(N)c1         0.0
13                    CCCCC/C=C\C=C\C(=O)OCC         1.0
14                      CC(C)COC(=O)c1ccccc1         0.0
15       O=[N+]([O-])c1cc(N(CCO)CCO)ccc1NCCO         0.0
16                       CCCCCCCCCCCCOC(C)=O         0.0
17  C[C@]12CC[C@@H]3c4ccc(O)cc4CC[C@H]3[C@@H]1CC[C@@H]2O         0.0
18  CCCCOC(=O)C(C)OC(=O)CCC (stereo not given)         0.0
19                         NNC(=O)OCc1ccccc1         0.0
20             C=C(C)C(=O)OCCC[Si](OC)(OC)OC         0.0
21                       C=C(C)C(=O)OCCN(C)C         0.0
22                   [O-]/[N+](=N\O)c1ccccc1         0.0
23                    Cc1cc(N)n(-c2ccccc2)n1         0.0
24        CCCCOCCOC(=O)c1ccccc1C(=O)OCCOCCCC         0.0
25                             CCCCCCCCCCCCS         1.0
26                      CC/C=C\CCOC(=O)C(C)C         0.0
27            O=C(O)c1ccc(C(=O)O)c(C(=O)O)c1         0.0
28  CC(C)Cc1ccc(C(C)C(=O)O)cc1 (stereo not given)         0.0
29                CC(O)CN (stereo not given)         0.0

* * *

Assay text: ATG_CMV_CIS: Attagene CIS-FACTORIAL HepG2 Assay for human CMV (Internal Marker) (AID 2282928);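 also: endpoint acts as a background internal control marker rather than a target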
Condition details: HepG2 CMV promoter reporter, transcription factor profiling; actives raise or lower the signal
Calls of active or inactive are those of the source. The calls were made as follows: active = hit-call score of the fitted dose curve at least 0.9, where 1 is the maximum; inactive = score below 0.9.
Outcome codes: true (1) (active), false (0) (inactive)

>>> print(df.to_string())
                                    molecule  class_name
 0                   CC(=O)CCC=C(C)CCC=C(C)C   false (0)
 1                               COc1ccccc1O   false (0)
 2                               CCNC(=S)NCC   false (0)
 3               CC(C)(O)C(=O)c1ccc(OCCO)cc1   false (0)
 4                                    CN(C)C   false (0)
 5                            CCCCOCCOCCOCCO   false (0)
 6  CC(C)Cc1ccc(C(C)C(=O)O)cc1 (stereo not given)   false (0)
 7                    CC(=O)CC(C)(C)C1CCCCC1   false (0)
 8                            CC(=O)CCC(=O)O   false (0)
 9                          CCOC(=O)C(=O)OCC   false (0)
10                     CC(C)N(c1ccccc1)C(C)C   false (0)
11                               CC(C)(CO)CO   false (0)
12                              ClCCOCCOCCCl   false (0)
13       CCCCCCCC1CCCC1=O (stereo not given)   false (0)
14                       CN(C)C(=O)Nc1ccccc1   false (0)
15                               OCCN1CCOCC1   false (0)
16                               N#CCCNCCC#N   false (0)
17  CC1(C)CC(N)CC(C)(CN)C1 (stereo not given)   false (0)
18       O=[N+]([O-])c1cc(N(CCO)CCO)ccc1NCCO   false (0)
19         CCCC1CCOC(C)S1 (stereo not given)   false (0)
20                    CC1(C)CC(=O)CC(C)(C)N1   false (0)
21                                CC/C=C\C#N   false (0)
22          CC(O)COCC(C)O (stereo not given)   false (0)
23                     CCCCCCCCCCCCCC(=O)OCC   false (0)
24           C=CCOCC(O)CO (stereo not given)   false (0)
25                                     [Cu+]   false (0)
26                Nc1ccc(N)c([N+](=O)[O-])c1    true (1)
27  O=C1OC2(c3ccc(O)cc3Oc3cc(O)ccc32)c2ccccc21   false (0)
28                       N=C1N=C(N)c2ccccc21   false (0)
29                                 Cc1ccncc1   false (0)
30                             O=C1CCC(=O)N1   false (0)
31                                 CCC(CC)CO   false (0)
32               c1coc(CNc2ncnc3nc[nH]c23)c1   false (0)
33                    Cc1cc(N)n(-c2ccccc2)n1   false (0)
34  CC/C(=C(\c1ccccc1)c1ccc(OCCN(C)C)cc1)c1ccccc1   false (0)

* * *

Target or test system: Ratio of Nucleoli Translocation and Cytoplasm, AR (gene 367)
Assay text: UPITT_HCI_U2OS_AR_TIF2_Nucleoli_Cytoplasm_Ratio_Antagonist: University of Pittsburgh U2OS Androgen Receptor-Transcriptional Intermediary Factor 2 (AR-TIF2) Antagonism High Content Imaging Assay for Ratio of Nucleoli Translocation and Cytoplasm (AID 2283999);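 also: antagonists lower the DHT-driven ratio of nucleolar to cytoplasmic red signal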
Records with an inconclusive call do not appear. Active and inactive are the calls of the source. How the source made its calls: active means hit-call score of the fitted dose curve at least 0.9, where 1 is the maximum; inconclusive means response in the unintended direction; inactive means score below 0.9.
Outcomes: active, inactive

In [3]: df
Out[3]:
                           substance_smiles  class_name
0                  COC(=O)c1cccc(C(=O)OC)c1    inactive
1                      CCOc1ccc(NC(C)=O)cc1    inactive
2    c1ccc2c(c1)-c1ccc3ccc4cccc5cc-2c1c3c45    inactive
3  OC[C@H]1O[C@@H](O[C@H]2[C@H](O)[C@@H](O)[C@H](O)O[C@@H]2CO)[C@H](O)[C@@H](O)[C@H]1O    inactive
4                       CC(C)(C)c1cccc(O)c1    inactive
5                        CCCCCCOc1ccc(O)cc1      active
